Biological target: huPPARα (Homo sapiens, UniProt Q07869)
Sequence (Q07869 1-468): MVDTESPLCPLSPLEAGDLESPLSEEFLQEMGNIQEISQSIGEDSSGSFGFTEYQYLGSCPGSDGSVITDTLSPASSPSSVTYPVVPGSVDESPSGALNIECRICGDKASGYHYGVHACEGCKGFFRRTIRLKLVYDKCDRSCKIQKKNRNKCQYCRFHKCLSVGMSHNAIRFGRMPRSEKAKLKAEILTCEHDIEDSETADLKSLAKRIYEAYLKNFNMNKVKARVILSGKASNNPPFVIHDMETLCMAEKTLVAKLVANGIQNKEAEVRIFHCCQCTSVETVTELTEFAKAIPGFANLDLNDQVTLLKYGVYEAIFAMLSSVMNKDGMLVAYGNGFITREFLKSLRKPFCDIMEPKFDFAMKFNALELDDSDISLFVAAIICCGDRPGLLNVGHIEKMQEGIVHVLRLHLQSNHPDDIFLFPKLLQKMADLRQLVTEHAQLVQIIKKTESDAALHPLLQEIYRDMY
Sequence (P19793 1-462 partner): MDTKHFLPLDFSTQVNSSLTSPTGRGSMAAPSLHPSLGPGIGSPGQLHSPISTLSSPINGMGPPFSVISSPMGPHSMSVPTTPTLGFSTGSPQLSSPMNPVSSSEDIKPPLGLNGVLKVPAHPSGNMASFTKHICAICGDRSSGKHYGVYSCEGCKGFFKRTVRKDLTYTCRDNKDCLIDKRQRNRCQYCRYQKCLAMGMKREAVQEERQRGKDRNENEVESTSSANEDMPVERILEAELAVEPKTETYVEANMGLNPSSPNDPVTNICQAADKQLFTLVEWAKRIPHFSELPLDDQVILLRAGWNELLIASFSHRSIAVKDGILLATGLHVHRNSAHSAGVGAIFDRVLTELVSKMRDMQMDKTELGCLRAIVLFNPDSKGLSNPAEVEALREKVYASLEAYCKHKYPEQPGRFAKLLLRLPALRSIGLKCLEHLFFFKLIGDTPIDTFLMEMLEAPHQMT
pIC50: −log10 of the molar value.
attribute-measured: pIC50

Cc1oc(-c2ccccc2)nc1CCOc1ccc(OC(C)(C)C(=O)O)c(CCc2ccccc2)c1 [Example 30J]: 7.09

a = CCCc1cc(OCCc2nc(-c3ccccc3)oc2C)ccc1OCC(=O)O [Example 26]
b = Cc1oc(-c2ccc(OC3CCCCC3)cc2)nc1CCOc1ccc(OC(C)(C)C(=O)O)cc1 [Example 21]
In: Endpoint returns the identifier whose pIC50 is numerically larger, either a or b . Indicate which entry you chose by stating its label.
Out: b
(b: 6.40, a: 5.48)

---

attribute-measured: melting point

Cc1oc(-c2ccccc2)nc1COc1ccc(OC(C)(C)C(=O)O)cc1: 136 to 138 °C

In: Hello, please tell me recorded melting point for this one: Cc1oc(-c2cccc(CCc3ccccc3)c2)nc1CCOc1ccc(OC(C)(C)C(=O)O)cc1 [Example 12A]
Out: 124 to 125 °C

In: Hello, please tell me recorded melting point for this one: `CC(C)(Oc1ccc(OCCc2coc(-c3ccccc3)n2)cc1)C(=O)[O-].[Na+]`
Out: 199 to 200 °C

In: Hello, please tell me recorded melting point for this one: `CCc1cccc(-c2nc(CCOc3ccc(OC(C)(C)C(=O)O)cc3)c(C)o2)c1`
Out: 134 to 135 °C

In: Hello, please tell me recorded melting point for this one: `Cc1cc(OCCc2nc(-c3ccccc3)oc2C)ccc1OC(C)(C)C(=O)O`
Out: 117 °C

In: Hello, please tell me recorded melting point for this one: `Cc1oc(-c2ccc(C(N)=O)cc2)nc1CCOc1ccc(OC(C)(C)C(=O)O)cc1`
Out: 126 to 127 °C

In: Hello, please tell me recorded melting point for this one: `C#Cc1ccc(-c2nc(CCOc3ccc(OC(C)(C)C(=O)O)cc3)c(C)o2)cc1`
Out: 137 to 139 °C

In: Hello, please tell me recorded melting point for this one: `Cc1oc(-c2ccccc2)nc1CCOc1cccc(OC(C)(C)C(=O)O)c1`
Out: 140 to 141 °C

In: Hello, please tell me recorded melting point for this one: `Cc1cc(OCCc2nc(-c3ccccc3)oc2C)ccc1OCC(=O)O`
Out: 133 °C

In: Hello, please tell me recorded melting point for this one: C=Cc1cccc(-c2nc(CCOc3ccc(OC(C)(C)C(=O)O)cc3)c(C)o2)c1 [Example 10A]
Out: 137 to 139 °C

In: Hello, please tell me recorded melting point for this one: `Cc1oc(-c2cccc(Br)c2)nc1CCOc1ccc(OC(C)(C)C(=O)O)cc1`
Out: 158 to 159 °C

In: Hello, please tell me recorded melting point for this one: `C#Cc1cccc(-c2nc(CCOc3ccc(OC(C)(C)C(=O)O)cc3)c(C)o2)c1`
Out: 131 to 134 °C

In: Hello, please tell me recorded melting point for this one: `Cc1sc(-c2ccccc2)nc1CCOc1ccc(OC(C)(C)C(=O)O)cc1`
Out: 163.5 °C

---

System: HuapoAI transgenic mice
Experiment: Evaluation of triglyceride and cholesterol level in HuapoAI transgenic mice
Type: in vivo
Conditions: Mus musculus, 168 h; 30 mg/kg daily oral gavage 7 days, percent increase in FPLC HDLc area under the curve
attribute-measured: change in vivo at 30 mg/kg (%)
The reply should be a number in %, with the unit left off.

// known answers, use as guide
CCc1cc(OC(C)(C)C(=O)O)ccc1OCCc1nc(-c2ccccc2)oc1C [Example 31A]: 98
CCc1cc(OCCc2nc(-c3ccccc3)oc2C)ccc1OC(C)(C)C(=O)O [Example 30A]: 93

Next:
In: Hello, please tell me recorded change in vivo at 30 mg/kg for this one: CCCCc1cc(OC(C)(C)C(=O)O)ccc1OCCc1nc(-c2ccccc2)oc1C [Example 31F]
Out: 79

---

System: HuapoAI transgenic mice
Experiment: Evaluation of triglyceride and cholesterol level in HuapoAI transgenic mice
Assay type: in vivo
Details: Mus musculus, 168 h; 30 mg/kg daily oral gavage 7 days, percent increase in FPLC HDLc area under the curve
Procedure: Five to six week old male mice, transgenic for human apoAI [C57Bl/6-tgn(apoa1)lrub, Jackson Laboratory, Bar Harbor, Me.] were housed five per cage (10″×20″×8″ with aspen chip bedding) with food (Purina 5001) and water available at all times. […] Glucose was measured colorimetrically using commercially purchased reagents (Sigma #315-500). […] The absorbance of the dye produced is linearly related to the analyte in the sample. […]
# key: entry, value: change in vivo at 30 mg/kg
The reply should be a number in %, with the unit left off.

// known answers, use as guide
CC(C)(Oc1ccc(OCCc2coc(-c3ccccc3)n2)cc1)C(=O)[O-].[Na+] [Example 3]: 63
Cc1oc(-c2ccc(OC3CCCCC3)cc2)nc1CCOc1ccc(OC(C)(C)C(=O)O)cc1 [Example 21]: 9
Cc1oc(-c2cccc(Br)c2)nc1CCOc1ccc(OC(C)(C)C(=O)O)cc1 [Example 9A]: 118
CCCc1cc(OCCc2nc(-c3ccccc3)oc2C)ccc1OC(C)(C)C(=O)O [Example 26A]: 43
CCc1ccc(-c2nc(CCOc3ccc(OC(C)(C)C(=O)O)cc3)c(C)o2)cc1 [Example 13]: 133

Next:
In: Hello, please tell me recorded change in vivo at 30 mg/kg for this one: Cc1oc(-c2ccccc2)nc1CCOc1ccc(OC(C)(C)C(=O)O)cc1 [Example 1]
Out: 77

---

Biological target: huPPARα (Homo sapiens)
Sequence (Q07869 1-468): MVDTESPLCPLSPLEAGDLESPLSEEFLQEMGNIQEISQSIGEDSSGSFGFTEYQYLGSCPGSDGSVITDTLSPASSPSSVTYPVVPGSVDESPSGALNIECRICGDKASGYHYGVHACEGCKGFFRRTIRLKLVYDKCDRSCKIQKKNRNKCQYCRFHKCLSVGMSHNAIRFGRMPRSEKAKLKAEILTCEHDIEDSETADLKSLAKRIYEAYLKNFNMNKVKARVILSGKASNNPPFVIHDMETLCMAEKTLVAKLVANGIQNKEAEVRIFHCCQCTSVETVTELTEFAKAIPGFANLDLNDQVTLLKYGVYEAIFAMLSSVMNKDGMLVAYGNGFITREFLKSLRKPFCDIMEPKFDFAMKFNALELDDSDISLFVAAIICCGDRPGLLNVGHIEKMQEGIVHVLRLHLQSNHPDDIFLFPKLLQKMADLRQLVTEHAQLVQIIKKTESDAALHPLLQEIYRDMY
Sequence (P19793 1-462 partner): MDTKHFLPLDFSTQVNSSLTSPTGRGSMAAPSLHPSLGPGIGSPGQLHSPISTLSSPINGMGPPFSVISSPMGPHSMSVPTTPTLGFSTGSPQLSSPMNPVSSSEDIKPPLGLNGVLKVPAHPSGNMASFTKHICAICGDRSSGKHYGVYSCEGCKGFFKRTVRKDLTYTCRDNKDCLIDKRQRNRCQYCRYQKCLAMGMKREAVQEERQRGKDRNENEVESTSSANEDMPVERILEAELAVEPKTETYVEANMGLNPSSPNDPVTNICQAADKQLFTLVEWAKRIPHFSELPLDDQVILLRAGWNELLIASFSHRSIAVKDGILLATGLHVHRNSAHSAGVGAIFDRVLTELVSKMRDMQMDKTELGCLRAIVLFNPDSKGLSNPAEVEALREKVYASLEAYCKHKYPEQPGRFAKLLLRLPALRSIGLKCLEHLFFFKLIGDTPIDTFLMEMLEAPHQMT
pIC50: −log10 of the molar value.
attribute-measured: pIC50

CCCc1cc(OC(C)(C)C(=O)O)ccc1OCCc1nc(-c2ccccc2)oc1C [Example 27A]: 6.95
Cc1oc(-c2ccccc2)nc1CCOc1ccc(OC(C)(C)C(=O)O)c2c1CCCC2: 6.60
Cc1oc(-c2cccc(CCc3ccccc3)c2)nc1CCOc1ccc(OC(C)(C)C(=O)O)cc1 [Example 12A]: 6.63
CCCCc1cc(OC(C)(C)C(=O)O)ccc1OCCc1nc(-c2ccccc2)oc1C [Example 31F]: 7.52
CCc1cc(OCCc2nc(-c3ccccc3)oc2C)ccc1OC(C)(C)C(=O)O [Example 30A]: 6.72
Cc1oc(-c2ccccc2)nc1CCOc1ccc(OC(C)(C)C(=O)O)c(CC(C)C)c1 [Example 30C]: 6.59

a = CCCc1cc(OCCc2nc(-c3ccccc3)oc2C)ccc1OC(C)(C)C(=O)O [Example 26A]
b = Cc1oc(-c2ccccc2)nc1CCOc1ccc(OC(C)(C)C(=O)O)c2ccccc12
In: Select the item whose pIC50 value is smaller, choosing between a and b . Indicate which entry you chose by stating its label.
Out: b
